Assign Ki to each entry below.
- ASSAY_TARGET: CCK-B receptor (Mus musculus, UniProt P56481)
- Sequence (P56481 1-453): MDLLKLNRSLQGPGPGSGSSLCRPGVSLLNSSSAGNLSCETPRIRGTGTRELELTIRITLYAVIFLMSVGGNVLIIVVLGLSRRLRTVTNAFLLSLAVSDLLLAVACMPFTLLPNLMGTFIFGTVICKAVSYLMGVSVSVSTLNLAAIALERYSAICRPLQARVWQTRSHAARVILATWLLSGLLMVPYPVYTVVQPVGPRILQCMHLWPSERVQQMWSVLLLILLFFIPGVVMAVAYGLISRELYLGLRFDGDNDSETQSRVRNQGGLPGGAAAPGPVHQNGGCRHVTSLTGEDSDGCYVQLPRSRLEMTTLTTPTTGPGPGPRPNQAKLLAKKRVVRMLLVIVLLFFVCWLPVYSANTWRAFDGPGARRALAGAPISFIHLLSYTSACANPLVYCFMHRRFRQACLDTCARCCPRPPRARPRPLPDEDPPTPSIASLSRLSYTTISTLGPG
Answers are plain numbers, in nM.

Past entries and their recorded results:
MOLECULE | Ki [nM]
Cc1ccc(S(=O)(=O)NC(=O)N[C@H](c2ccccc2)[C@H](NC(=O)Nc2ccc(Cl)cc2)c2ccccc2)cc1 (relative stereo) [Example 46] | 188
O=C(Nc1ccc([N+](=O)[O-])cc1)N[C@H](c1ccccc1)[C@H](NC(=O)Nc1ccc(C(F)(F)F)cc1)c1ccccc1 (relative stereo) [Example 15] | 309
O=C(Nc1ccc(Cl)cc1)N[C@H](c1ccccc1)[C@H](NC(=O)Nc1ccc(C(F)(F)F)cc1)c1ccccc1 (relative stereo) [Example 10] | 371

Query molecule follows.
Ki for O=C(Nc1ccc(Cl)cc1)N[C@H](c1ccccc1)[C@H](NC(=O)NS(=O)(=O)c1ccccc1)c1ccccc1 (relative stereo) [Example 47] ?
290
